# Tested on: CsnR (ROK-family transcriptional repressor, SSPG_04872) (Streptomyces lividans TK24)
# protocol_notes: competition
# cond: competitor vs labeled csnA-WT; +6 mutation; SE logIC50 0.08

| macromolecule_sequence | IC50 (nM) |
| --- | --- |
| CCTCTTCTGGTAGGAAACTTTCCGATCAGT (double strand) [csnA-M2] | 2.7 |

----------
# System: CsnR (ROK-family transcriptional repressor, SSPG_04872) (Streptomyces lividans TK24)
# protocol_notes: competition
# cond: competitor vs labeled csnA-WT; +2 and +6 mutations; lost most affinity; SE logIC50 0.33

| macromolecule_sequence | IC50 / nM |
| --- | --- |
| CCTCTTCTGGTAGGAAACTGTCCGATCAGT (double strand) [csnA-MM] | 105 |

----------
# System: CsnR (ROK-family transcriptional repressor, SSPG_04872) (Streptomyces lividans TK24)
# protocol_notes: competition
# cond: competitor vs labeled csnA-WT; +2 mutation; SE logIC50 0.13

| macromolecule_sequence | IC50 / nM |
| --- | --- |
| CCTCTTCTGGTAGGAAACTGTCCTATCAGT (double strand) [csnA-M1] | 52.1 |

----------
# Test system: CsnR (ROK-family transcriptional repressor, SSPG_04872) (Streptomyces lividans TK24)
# protocol_notes: EMSA
# cond: SE 0.008 nM; 10 mM HEPES pH 7.9, 150 mM KCl, 10% glycerol, poly(dI-dC), room temperature
pKd: −log10 of the molar value.

| macromolecule_sequence | pKd |
| --- | --- |
| CTCCAGCCAACAGGAAACTTTCCTAACAGA (double strand) [csnR-WT] | 10.40 |

----------
# System: CsnR (ROK-family transcriptional repressor, SSPG_04872) (Streptomyces lividans TK24)
# protocol_notes: competition
# cond: unlabeled competitor vs 0.03 nM labeled csnA-WT; SE logIC50 0.11

| macromolecule_sequence | IC50, nM |
| --- | --- |
| CCTCTTCTGGTAGGAAACTTTCCTATCAGT (double strand) [csnA-WT] | 1.3 |

----------
# System: CsnR (ROK-family transcriptional repressor, SSPG_04872) (Streptomyces lividans TK24)
# protocol_notes: EMSA
# cond: SE 0.009 nM; 10 mM HEPES pH 7.9, 150 mM KCl, 10% glycerol, poly(dI-dC), room temperature

| macromolecule_sequence | units_text | Kd |
| --- | --- | --- |
| CCTCTTCTGGTAGGAAACTTTCCTATCAGT (double strand) [csnA-WT] | nM | 0.032 |
